# System: antibodies in sera from SARS patients (sera 1a, 1b, 2, 6, 37, 62, London, SARS-yellow, SARS-green)
# Assay type: binding, human
# Set-up: unit not given here
readout: Binding of serum 1b to looped/cyclic peptides of protein N of SARS-CoV Urbani
Answer field: number only, no words.

Indicate its recorded Binding of serum 1b to looped/cyclic peptides of protein N of SARS-CoV Urbani; the sequence in question is QGLPNNTASWFTALT
0.3

Indicate its recorded Binding of serum 1b to looped/cyclic peptides of protein N of SARS-CoV Urbani; the sequence in question is TQGNFGDQDLIRQGT
0.3

Indicate its recorded Binding of serum 1b to looped/cyclic peptides of protein N of SARS-CoV Urbani; the sequence in question is APSASAFFGMSRIGM
0.3

---

# Test system: rabbit serum obtained by immunizing a rabbit with the SARS-CoV strain Frankfurt 1
# Format: binding
# Set-up: unit not given here
Short version: Rabbit serum linear peptides at least 0.4 is fulfilled, less is not fulfilled.

Use the examples below as a reference point.
- polymer_sequence: "ELKQLLEQWNLVIGF"
  target_desc: "rabbit serum obtained by immunizing a rabbit with the SARS-CoV strain Frankfurt 1"
  assigned_label: "not fulfilled"
- polymer_sequence: "TYSTAWLCALGKVLP"
  target_desc: "rabbit serum obtained by immunizing a rabbit with the SARS-CoV strain Frankfurt 1"
  assigned_label: "fulfilled"
- polymer_sequence: "HEGHQTAAFRDVLVV"
  target_desc: "rabbit serum obtained by immunizing a rabbit with the SARS-CoV strain Frankfurt 1"
  assigned_label: "not fulfilled"

# check: Rabbit serum linear peptides of PLADNKFALTCTSTH is greater than or equal to 0.4
fulfilled

# check: Rabbit serum linear peptides of KILVRYNTRGNTYST is greater than or equal to 0.4
fulfilled

# check: Rabbit serum linear peptides of SRTLSYYKLGASQRV is greater than or equal to 0.4
fulfilled

# check: Rabbit serum linear peptides of LYHYQECVRGTTVLL is greater than or equal to 0.4
fulfilled

# check: Rabbit serum linear peptides of SELVIGAVIIRGHLR is greater than or equal to 0.4
not fulfilled

---

# System: antibodies in sera from SARS patients (sera 1a, 1b, 2, 6, 37, 62, London, SARS-yellow, SARS-green)
# Type: binding, human
readout: Binding of serum 2 to looped/cyclic peptides of protein M of SARS-CoV Urbani
Answer field: number only, no words.

As a guide, the following entries are already answered.
- polymer_sequence: "VGTDSGFAAYNRYRI"
  meas_value: 0.7
- polymer_sequence: "AVYRINWVTGGIAIA"
  meas_value: 0.6
- polymer_sequence: "IKLVFLWLLWPVTLA"
  meas_value: 0.6

Indicate its recorded Binding of serum 2 to looped/cyclic peptides of protein M of SARS-CoV Urbani; the sequence in question is LEQWNLVIGFLFLAW
0.7

Indicate its recorded Binding of serum 2 to looped/cyclic peptides of protein M of SARS-CoV Urbani; the sequence in question is RYRIGNYKLNTDHAG
0.6

Indicate its recorded Binding of serum 2 to looped/cyclic peptides of protein M of SARS-CoV Urbani; the sequence in question is ATSRTLSYYKLGASQ
0.6

Indicate its recorded Binding of serum 2 to looped/cyclic peptides of protein M of SARS-CoV Urbani; the sequence in question is TDSGFAAYNRYRIGN
0.6

Indicate its recorded Binding of serum 2 to looped/cyclic peptides of protein M of SARS-CoV Urbani; the sequence in question is ARTRSMWSFNPETNI
0.9

Indicate its recorded Binding of serum 2 to looped/cyclic peptides of protein M of SARS-CoV Urbani; the sequence in question is LWPVTLACFVLAAVY
0.7

Indicate its recorded Binding of serum 2 to looped/cyclic peptides of protein M of SARS-CoV Urbani; the sequence in question is SFNPETNILLNVPLR
0.9

Indicate its recorded Binding of serum 2 to looped/cyclic peptides of protein M of SARS-CoV Urbani; the sequence in question is DSGFAAYNRYRIGNY
0.6

Indicate its recorded Binding of serum 2 to looped/cyclic peptides of protein M of SARS-CoV Urbani; the sequence in question is YRIGNYKLNTDHAGS
0.5

Indicate its recorded Binding of serum 2 to looped/cyclic peptides of protein M of SARS-CoV Urbani; the sequence in question is FAAYNRYRIGNYKLN
0.7

Indicate its recorded Binding of serum 2 to looped/cyclic peptides of protein M of SARS-CoV Urbani; the sequence in question is AWIMLLQFAYSNRNR
0.6

Indicate its recorded Binding of serum 2 to looped/cyclic peptides of protein M of SARS-CoV Urbani; the sequence in question is ACIVGLMWLSYFVAS
0.5

Indicate its recorded Binding of serum 2 to looped/cyclic peptides of protein M of SARS-CoV Urbani; the sequence in question is NLVIGFLFLAWIMLL
0.5

Indicate its recorded Binding of serum 2 to looped/cyclic peptides of protein M of SARS-CoV Urbani; the sequence in question is IMLLQFAYSNRNRFL
0.6

Indicate its recorded Binding of serum 2 to looped/cyclic peptides of protein M of SARS-CoV Urbani; the sequence in question is WSFNPETNILLNVPL
0.6
